System: NCI-H226 lung
assay_overview: NCI-60 one-dose screen, 48 h (100 = growth as untreated, 0 = no growth, -100 = all killed)
experimental_conditions: 10 µM unless noted
The panel holds about 83,000 compounds, 20% with a hit somewhere; the sample as a whole holds those more often.

molecule: CCN(CCNc1ccc(C)c2sc3cc(Cl)ccc3c(=O)c12)CC(C)O (stereo unspecified)
unit_abbreviation: %
growth: 134
--
molecule: COc1cc(C(=O)/C=C/c2c(-c3ccc(F)cc3)nc3sccn23)cc(OC)c1OC
unit_abbreviation: %
growth: 76.1
--
molecule: Cn1cc(-c2nnc(-c3cn(C)c4ncccc34)o2)c2ccccc21
unit_abbreviation: %
growth: 64.9
--
molecule: Ic1ccc2[nH]cc(SSc3c[nH]c4ccc(I)cc34)c2c1
unit_abbreviation: %
growth: 24.9
--
molecule: CO[C@H]1CC[C@@]2(C)C(=CC[C@H]3[C@@H]4C[C@H](O)C[C@@]4(C)CC[C@@H]32)C1
unit_abbreviation: %
growth: 82.4
--
molecule: O=[N+]([O-])c1cc(CCl)ccc1OCCBr
unit_abbreviation: %
growth: 94.8
--
molecule: CC(C)OC(=O)Nc1cc(F)c(F)cc1F
unit_abbreviation: %
growth: 98
--
molecule: CCOC(=O)CC(c1ccccc1)C(C#N)c1ccccc1 (stereo unspecified)
unit_abbreviation: %
growth: 95.4
--
molecule: COCc1nc2ccccc2[nH]1
unit_abbreviation: %
growth: 100
--
molecule: NNC(=O)c1ccc(C(=O)NN)cc1
unit_abbreviation: %
growth: 97.6
--
molecule: CCOC(=O)C(=Cc1ccccc1[N+](=O)[O-])C(=O)OCC
unit_abbreviation: %
growth: 42.3
